Recorded pIC50 values for a group of compounds are listed next.
TARGET_UNDER_TEST: purified recombinant human JAK1 protein (Homo sapiens (Human), UniProt P23458)
Sequence (P23458 whole entry): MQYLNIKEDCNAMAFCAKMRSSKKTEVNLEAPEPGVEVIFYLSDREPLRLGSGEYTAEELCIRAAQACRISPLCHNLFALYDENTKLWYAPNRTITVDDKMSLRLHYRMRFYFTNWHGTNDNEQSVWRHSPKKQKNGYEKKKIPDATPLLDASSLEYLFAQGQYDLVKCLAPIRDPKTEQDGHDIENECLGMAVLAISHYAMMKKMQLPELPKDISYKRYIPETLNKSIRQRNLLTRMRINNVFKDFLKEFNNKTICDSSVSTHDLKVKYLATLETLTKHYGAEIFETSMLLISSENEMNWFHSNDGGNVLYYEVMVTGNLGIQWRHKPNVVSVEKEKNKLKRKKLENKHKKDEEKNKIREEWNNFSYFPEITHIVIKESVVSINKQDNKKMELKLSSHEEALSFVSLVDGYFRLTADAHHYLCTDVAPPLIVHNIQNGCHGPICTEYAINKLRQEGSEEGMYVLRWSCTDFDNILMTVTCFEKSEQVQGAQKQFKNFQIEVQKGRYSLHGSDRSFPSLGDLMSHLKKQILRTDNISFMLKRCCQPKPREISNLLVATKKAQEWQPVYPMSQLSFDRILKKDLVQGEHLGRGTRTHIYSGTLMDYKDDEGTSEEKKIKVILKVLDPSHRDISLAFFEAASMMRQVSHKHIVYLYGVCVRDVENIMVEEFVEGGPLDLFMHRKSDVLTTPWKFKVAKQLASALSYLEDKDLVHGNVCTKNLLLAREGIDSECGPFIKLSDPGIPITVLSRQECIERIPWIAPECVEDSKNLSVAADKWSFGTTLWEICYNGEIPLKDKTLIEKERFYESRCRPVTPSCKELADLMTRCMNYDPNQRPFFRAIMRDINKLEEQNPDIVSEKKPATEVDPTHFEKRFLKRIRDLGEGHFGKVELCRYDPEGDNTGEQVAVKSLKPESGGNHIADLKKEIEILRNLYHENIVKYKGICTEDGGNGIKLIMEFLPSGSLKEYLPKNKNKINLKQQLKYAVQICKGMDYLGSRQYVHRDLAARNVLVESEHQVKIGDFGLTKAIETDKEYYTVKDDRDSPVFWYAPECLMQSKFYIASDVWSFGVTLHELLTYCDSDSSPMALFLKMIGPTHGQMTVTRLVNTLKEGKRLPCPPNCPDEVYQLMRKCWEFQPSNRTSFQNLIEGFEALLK
ASSAY_TEXT: JAK1 kinase-inhibiting activity (mobility shift, LabChip EZ Reader II)
REPORTED_CONDITIONS: ATP 75 μM, 25° C., 120 minutes
Protocol: 1) Measurement of JAK1 Kinase-Inhibiting Activity The activity of the compound of the present invention to inhibit the activity of JAK1 kinase was measured. […] The method for measuring the inhibiting activity is as follows. […] Finally, using LabChip EZ Reader II (Perkin Elmer Corp.), an unphosphorylated substrate peptide (S) and a phosphorylated peptide (P) were subjected to microchannel capillary electrophoresis, so that the two peptides were separated from each other and were then detected. […]
A value of pIC50 is the negative decimal logarithm of a concentration given in moles per litre.

COMPOUND	EXPERIMENTAL_RESULT
C=CC(=O)NC1C=C(c2ncnc3[nH]cc(-c4ccccc4)c23)CCC1 (stereo not drawn) [Compound 12]	5.49

Challenge: Hello, I am looking for reported pIC50 with purified recombinant human JAK1 protein (Homo sapiens (Human), UniProt P23458) for C=CC(=O)NC1CCC=C(c2ncnc3[nH]cc(-c4ccccc4)c23)C1 (stereo not drawn) [Compound 1] . Could you help?
Response given: 6.06

Challenge: Hello, I am looking for reported pIC50 with purified recombinant human JAK1 protein (Homo sapiens (Human), UniProt P23458) for C=CC(=O)NC1CCC=C(c2ncnc3[nH]cc(-c4ccoc4)c23)C1 (stereo not drawn) [Compound 4] . Could you help?
Response given: 5.54

Challenge: Hello, I am looking for reported pIC50 with purified recombinant human JAK1 protein (Homo sapiens (Human), UniProt P23458) for C=CC(=O)NC1CCC=C(c2ncnc3[nH]cc(-c4ccsc4)c23)C1 (stereo not drawn) [Compound 3] . Could you help?
Response given: 5.82

Challenge: Hello, I am looking for reported pIC50 with purified recombinant human JAK1 protein (Homo sapiens (Human), UniProt P23458) for C=CC(=O)NC1CC=C(c2ncnc3[nH]cc(-c4ccco4)c23)C1 (stereo not drawn) [Compound 8] . Could you help?
Response given: 5.85

Challenge: Hello, I am looking for reported pIC50 with purified recombinant human JAK1 protein (Homo sapiens (Human), UniProt P23458) for C=CC(=O)NC1C=C(c2ncnc3[nH]cc(-c4ccco4)c23)CCC1 (stereo not drawn) [Compound 15] . Could you help?
Response given: 5.59

Challenge: Hello, I am looking for reported pIC50 with purified recombinant human JAK1 protein (Homo sapiens (Human), UniProt P23458) for C=CC(=O)NC1C=C(c2ncnc3[nH]cc(-c4cccs4)c23)CCC1 (stereo not drawn) [Compound 13] . Could you help?
Response given: 5.49

Challenge: Hello, I am looking for reported pIC50 with purified recombinant human JAK1 protein (Homo sapiens (Human), UniProt P23458) for C=CC(=O)NC1CC=C(c2ncnc3[nH]cc(-c4ccccc4)c23)C1 (stereo not drawn) [Compound 9] . Could you help?
Response given: 5.68

Challenge: Hello, I am looking for reported pIC50 with purified recombinant human JAK1 protein (Homo sapiens (Human), UniProt P23458) for C=CC(=O)NC1C=C(c2ncnc3[nH]cc(-c4ccsc4)c23)CCC1 (stereo not drawn) [Compound 14] . Could you help?
Response given: 5.25

Challenge: Hello, I am looking for reported pIC50 with purified recombinant human JAK1 protein (Homo sapiens (Human), UniProt P23458) for C=CC(=O)NC1C=C(c2ncnc3[nH]cc(-c4ccoc4)c23)CCC1 (stereo not drawn) [Compound 16] . Could you help?
Response given: 5.31

Challenge: Hello, I am looking for reported pIC50 with purified recombinant human JAK1 protein (Homo sapiens (Human), UniProt P23458) for C1=C(c2ncnc3[nH]ccc23)CCCC1 [Comparative Example 10, reference compound] . Could you help?
Response given: 6.38

Reference source: patent US10421760B2
